- Tested on: HIV-IIIb
- Assay Procedure: Test A: Antiviral Assays in MT4 Cells
- Format: cell-based
- Reported Conditions: Human immunodeficiency virus 1, IIIB, MT4, 120 h, MT-4 cells infected with HIV-IIIb (0.004 m.o.i.), 5 days of incubation, CellTiter-Glo chemiluminescence readout; read-out: EC50
Entries and their measured log10(EC50) follow.
Metric: log10(EC50) (log10 of the value in nM)

> print(dat)
                                    compound  obs.value
 1  Cc1cc2cc(C3CC3)c(F)cc2c(-c2ccc3c4c(ccnc24)CCO3)c1[C@H](OC(C)(C)C)C(=O)O (atropisomer, axis not shown)       4.46
 2  Cc1cc2cc(-c3cn[nH]c3)ccc2c(-c2ccc(Cl)cc2)c1[C@H](OC(C)(C)C)C(=O)O       1.91
 3  CC(C)(C)O[C@H](C(=O)O)c1c(C(F)F)cc2ccccc2c1-c1ccc2c3c(ccnc13)CCO2       1.93
 4  Cc1cc2c(C(N)=O)cc(F)cc2c(-c2ccc3c4c(ccnc24)CCO3)c1[C@H](OC(C)(C)C)C(=O)O (atropisomer, axis not shown)       4.46
 5  Cc1cc2c(Cl)cc(F)cc2c(-c2ccc3c4c(ccnc24)CCO3)c1[C@H](OC(C)(C)C)C(=O)O       3.04
 6  Cc1cc2c(-c3cncnc3)cccc2c(-c2ccc(Cl)cc2)c1C(OC(C)(C)C)C(=O)O (centres unmarked)       2.60
 7  Cc1c(C(OC(C)(C)C)C(=O)O)c(-c2ccc(Cl)cc2)c2ccccc2c1-c1ccc(Cl)cc1 (centres unmarked)       3.20
 8  Cc1c([C@H](OC(C)(C)C)C(=O)O)c(-c2ccc3c4c(ccnc24)CCO3)c2ccccc2c1C(N)=O       2.55
 9  Cc1cc2c(C#N)cc(F)cc2c(-c2ccc3c4c(ccnc24)CCO3)c1[C@H](OC(C)(C)C)C(=O)O (atropisomer, axis not shown)       4.46
10  Cc1cc2ccccc2c(-c2ccc3c4c2NCCC4CCO3)c1[C@H](OC(C)(C)C)C(=O)O (some centres unmarked)       1.97
11  Cc1cc2ccccc2c(C2=CCCC2)c1[C@H](OC(C)(C)C)C(=O)O       2.04
12  Cc1cc2ccc(C#CC3(O)CCCC3)cc2c(-c2ccc(Cl)cc2)c1C(OC(C)(C)C)C(=O)O (centres unmarked)       2.11
13  Cc1cc2ccccc2c(-c2ccc3c4c2N(C)CCC4CCO3)c1[C@H](OC(C)(C)C)C(=O)O (some centres unmarked)       2.73
14  Cc1cc2ccc(C#CC3(O)CCCCC3)cc2c(-c2ccc(Cl)cc2)c1C(OC(C)(C)C)C(=O)O (centres unmarked)       1.89

* * *

- Tested on: HIV-IIIb
- Assay Procedure: Test A: Antiviral Assays in MT4 Cells
- Assay type: cell-based
- Reported Conditions: Human immunodeficiency virus 1, IIIB, MT4, 120 h, MT-4 cells infected with HIV-IIIb (0.004 m.o.i.), 5 days of incubation, CellTiter-Glo chemiluminescence readout; read-out: EC50
This listing pairs compounds with measured EC50.
Metric: EC50 (µM)

> print(dat)
                                    compound  readout.unit  obs.value
 1  Cc1cc2c(-c3ccc(Cl)cc3)cccc2c(-c2ccc(Cl)cc2)c1C(OC(C)(C)C)C(=O)O (centres unmarked)            µM        3.4
 2  Cc1c([C@H](OC(C)(C)C)C(=O)O)c(-c2ccc3c4c(ccnc24)CCO3)c2ccccc2c1F (atropisomer, axis not shown)            µM         34
 3  Cc1cc2ccccc2c(C2=CCC3(CC2)CC3)c1[C@H](OC(C)(C)C)C(=O)O            µM      0.015
 4  Cc1cc2cc(C(C)C)c(F)cc2c(-c2ccc3c4c(ccnc24)CCO3)c1[C@H](OC(C)(C)C)C(=O)O (atropisomer, axis not shown)            µM         29
 5  Cc1c(C(OC(C)(C)C)C(=O)O)c(-c2ccc(Cl)cc2)c2ccccc2c1Br (centres unmarked)            µM      0.833
 6  Cc1cc2ccc(C#CC(C)(C)O)cc2c(-c2ccc(Cl)cc2)c1C(OC(C)(C)C)C(=O)O (centres unmarked)            µM       0.38
 7  Cc1cc2cc(-c3cnccn3)ccc2c(-c2ccc(Cl)cc2)c1[C@H](OC(C)(C)C)C(=O)O            µM      0.032
 8  CCC(O)(C#Cc1ccc2cc(C)c(C(OC(C)(C)C)C(=O)O)c(-c3ccc(Cl)cc3)c2c1)CC (centres unmarked)            µM      0.058
 9  CC(C)(C)O[C@H](C(=O)O)c1c(COc2cccnc2)cc2ccccc2c1-c1ccc(Cl)cc1            µM         26
10  Cc1c(C(OC(C)(C)C)C(=O)O)c(-c2ccc(Cl)cc2)c2ccccc2c1CO (centres unmarked)            µM      0.045
11  Cc1cc2ccccc2c(C2=CC(C)(C)CCC2=O)c1[C@H](OC(C)(C)C)C(=O)O            µM        8.9
12  Cc1cc2ccccc2c(-c2ccc(Cl)cc2)c1[C@H](OC(C)(C)C)C(=O)O            µM      0.056
13  Cc1cc2c(Cl)cccc2c(-c2ccc(Cl)cc2)c1C(OC(C)(C)C)C(=O)O (centres unmarked)            µM        1.8
14  COC(=O)NC(C)(C)C#Cc1ccc2cc(C)c(C(OC(C)(C)C)C(=O)O)c(-c3ccc(Cl)cc3)c2c1 (centres unmarked)            µM        0.3
15  Cc1cc2ccc(C#CC(C)(C)N)cc2c(-c2ccc3c4c(ccnc24)CCO3)c1C(OC(C)(C)C)C(=O)O (centres unmarked) [Compound 176]            µM         12
16  Cc1c(C(OC(C)(C)C)C(=O)O)c(-c2ccc(Cl)cc2)c2ccccc2c1CCCN(C)C (centres unmarked)            µM      0.118
17  Cc1c(C(OC(C)(C)C)C(=O)O)c(-c2ccc(Cl)cc2)c2ccccc2c1-c1cnc(=O)[nH]c1 (centres unmarked)            µM         10
18  Cc1cc2ccc(Cl)cc2c(-c2ccc3c4c(ccnc24)CCO3)c1[C@H](OC(C)(C)C)C(=O)O (atropisomer, axis not shown)            µM         29
19  Cc1cc2cc(C(F)F)ccc2c(-c2ccc3c4c(ccnc24)CCO3)c1[C@H](OC(C)(C)C)C(=O)O            µM      0.005
20  Cc1c(C(OC(C)(C)C)C(=O)O)c(-c2ccc(Cl)cc2)c2ccccc2c1C#CCN(C)C (centres unmarked)            µM      0.062
21  Cc1cc2cc(F)ccc2c(-c2ccc(Cl)cc2)c1C(OC(C)(C)C)C(=O)O (centres unmarked)            µM       0.11
22  CC(=O)NC(C)(C)C#Cc1ccc2cc(C)c(C(OC(C)(C)C)C(=O)O)c(-c3ccc(Cl)cc3)c2c1 (centres unmarked)            µM      0.088
23  Cc1cc2c(-c3cncnc3)cc(F)cc2c(-c2ccc3c4c(ccnc24)CCO3)c1[C@H](OC(C)(C)C)C(=O)O (atropisomer, axis not shown)            µM         11
24  Cc1cc2c(Br)cccc2c(-c2ccc(Cl)cc2)c1C(OC(C)(C)C)C(=O)O (centres unmarked)            µM        1.2
25  CNC(=O)c1cc2cc(C)c([C@H](OC(C)(C)C)C(=O)O)c(-c3ccc4c5c(ccnc35)CCO4)c2cc1F (atropisomer, axis not shown)            µM         16
26  Cc1c(C(OC(C)(C)C)C(=O)O)c(-c2ccc(Cl)cc2)c2ccccc2c1-c1cnc(N)nc1 (centres unmarked)            µM       0.05
27  Cc1c(C(OC(C)(C)C)C(=O)O)c(-c2ccc(Cl)cc2)c2ccccc2c1-c1cccnc1 (centres unmarked)            µM       0.04
28  Cc1cc2c(C)cccc2c(-c2ccc(Cl)cc2)c1C(OC(C)(C)C)C(=O)O (centres unmarked)            µM       0.21
29  Cc1cc2c(F)cccc2c(-c2ccc3c4c(ccnc24)CCO3)c1C(OC(C)(C)C)C(=O)O (centres unmarked)            µM       0.12
